# methodDescription: blockers of ER-stress CHOP reporter expression – cell-based, unfolded protein response, luciferase reporter, primary screen (AID 2732);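 also: 0% = tunicamycin plus vehicle and 100% = wells without tunicamycin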
# conditionLabel: CHO-K1 CHOP-promoter luciferase, tunicamycin-induced, 15-18 h; at 10 µM
The whole screen tested about 220,000 compounds, of which about 8,200 (3.7%) were called active.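 The calls were made as follows: active = compounds that reduced the stress-induced luciferase reporter signal by more than about 70% of percent inhibition (limit read from the data); inactive = the rest.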 The list comes from a sample in which actives are over-represented; it also holds close analogues and randomly drawn compounds.
Use one of these outcomes when replying: active, inactive

Problem: Please let me know the test result on file for O=C(Nc1ccc(C(=O)O)cc1)/C(=C/c1ccc([N+](=O)[O-])cc1)NC(=O)c1ccccc1 .
Solution: inactive

Problem: Also S=C(NCCc1ccccc1)Nc1ccccc1 ?
Solution: inactive

Problem: Quick one: Cc1cccc(N(C)C(=O)c2cc3c(=O)[nH]c4ccc(C)cc4c3s2)c1
Solution: active

Problem: Same lookup for Cc1c(C)c(C)c2[nH]c(=S)[nH]c2c1C , please.
Solution: inactive

Problem: Note, next up: CC(C)n1cnc2c(Nc3cccc(Cl)c3)nc(N(CCO)CCCO)nc21
Solution: inactive

Problem: Then this compound: O=C1[C@@H]2C(c3cccnc3)=NO[C@@H]2C(=O)N1c1ccc(Cl)cc1Cl
Solution: inactive

Problem: Quick one: CCCCCCCCn1c2c(c(=N)c3c1CCC3)CCCC2
Solution: active

Problem: Same question for Cc1coc2cc3oc(=O)c(CCC(=O)O)c(C)c3cc12 please.
Solution: inactive

Problem: Cool, now Cn1c(=O)c2c(nc(NCc3ccccc3)n2CC(N)=O)n(C)c1=O
Solution: inactive

Problem: Again, but for NC(=O)C1(C(N)=O)OC1c1ccc(Cl)cc1Cl (configuration not stated)
Solution: inactive

Problem: Also CCOC(=O)c1c(NC(=S)Nc2ccccc2C)sc2c1CCC2 , if possible.
Solution: inactive

Problem: Consider next the compound Cc1ccc(NC(=S)NCc2ccccc2Cl)c(C)c1 in the same way.
Solution: inactive

Problem: Repeat with O=C(Nc1ccc(Cl)cc1)Nc1ccc(C(=O)N2CCOCC2)cc1
Solution: inactive

Problem: Again, but for O=C(Nc1ccccc1Cl)c1ccc2nsnc2c1
Solution: inactive

Problem: Repeat for the following compound: Cc1cccc(N=C2NC(=O)/C(=C/c3cn(C)c4ccccc34)S2)c1
Solution: inactive

Problem: Same question for CCCN(CCC)S(=O)(=O)c1ccc(C(=O)NNC(=O)c2cc(OC)c(OC)c(OC)c2)cc1 please.
Solution: inactive

Problem: Also, Cc1c(NC(=O)CN2C(=O)C(=O)N(Cc3ccccc3)C2=O)c(=O)n(-c2ccccc2)n1C please.
Solution: inactive

Problem: Next compound up: COc1ccccc1CNC(=O)c1ccc(SC)cc1OC
Solution: inactive

Problem: Same question, OCCCNc1nccc(-c2cc(Nc3cccc(Cl)c3)ncn2)n1 this time
Solution: active

Problem: Then CCOC(=O)c1c(NC(=S)NC(=O)c2ccco2)sc2c1CCCC2 ?
Solution: active

Problem: And then CN(CC(=O)Nc1ccc(F)cc1)CC(=O)Nc1ccc(Cl)c(S(=O)(=O)N2CCOCC2)c1 , what is it?
Solution: inactive

Problem: Note, next up: O=C(Nc1ccccc1)/C(=C/c1ccc([N+](=O)[O-])cc1)NC(=O)c1ccccc1
Solution: inactive

---

I'd be grateful if you could share measured inhibition for these entries.
# methodDescription: blockers of ER-stress CHOP reporter expression – cell-based, unfolded protein response, luciferase reporter, primary screen (AID 2732);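 also: 0% = tunicamycin plus vehicle and 100% = wells without tunicamycin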
# conditionLabel: CHO-K1 CHOP-promoter luciferase, tunicamycin-induced, 15-18 h; at 10 µM; hits give high values
Out of some 220,000 compounds screened, about 8,200 (3.7%) were called active. This excerpt belongs to a sample that is enriched for actives.
Give just the number in %; leave the unit off.

Problem: GET /values?readout=inhibition&item= COc1ccc(OCC(=O)Nc2nnc(-c3ccco3)s2)cc1
Solution: 28.2

Problem: What do we get for CN(C)S(=O)(=O)c1ccc(NC(=O)COC(=O)Cn2[nH]c(=O)c3ccccc3c2=O)cc1 ?
Solution: 0.58

Problem: Please do the same for CCc1nnc(NS(=O)(=O)c2ccc(N=Cc3c(C)[nH]n(-c4ccc(C)cc4)c3=O)cc2)s1 as well.
Solution: -15.8

Problem: And then CNc1nnc(-c2ccco2)s1 , what is it?
Solution: 7.19

Problem: Another molecule to check: COc1ccc(C(=O)N/N=C2\CCS(=O)(=O)c3ccc(F)cc32)cc1OC
Solution: -0.83

Problem: Try this molecule next: Cc1ccc(OCC(=O)Nc2nnc(-c3ccco3)s2)cc1
Solution: 82.2

Problem: Another molecule to check: O=C(O)C#Cc1cccc2ccccc12
Solution: -1.61

Problem: Now try Cc1cccc(C)c1Nc1c(-c2ccccc2O)nc2ncccn12 .
Solution: 6.71

Problem: Then what about the molecule Clc1ccc(C[n+]2cc(-c3ccc(Cl)cc3)n3c2CCC3)cc1 ?
Solution: -2.43

Problem: # iterate: Cc1ccc(-n2[nH]c(C)c(/C=N/N3C(=O)c4cccc5cccc(c45)C3=O)c2=O)cc1
Solution: 36.5

Problem: Input O=C1NNC(c2ccccc2)=N/C1=C\c1ccc(Cl)cc1
Solution: 24.3
